Test system: CAG foci in primary DM1 patient myoblasts
Test: Single-cut screening: CAG foci staining
Format: cell-based, human
Details: single sgRNA, DNA-PKi treated
Exam item: assign yes (1) to entries whose % of CAG foci positive nuclei (DNA-PKi) is below 2% and no (0) to entries at or above 2%. Note that a value of exactly 2% receives no (0).

Solved cases below.
- substance: "CTTTTGCCAAACCCGCTTTTTC (guide RNA; chemistry not fully specified) [SluD41]"
  test_system: "CAG foci in primary DM1 patient myoblasts"
  assigned_label: "yes (1)"
- substance: "GCCCCAGCCGGCTCCGCCCGCT (guide RNA; chemistry not fully specified) [SluD55]"
  test_system: "CAG foci in primary DM1 patient myoblasts"
  assigned_label: "no (0)"
- substance: "GCGCGATCTCTGCCTGCTTACT (guide RNA; chemistry not fully specified) [SluD37]"
  test_system: "CAG foci in primary DM1 patient myoblasts"
  assigned_label: "no (0)"
- substance: "TCCGAGAGCAGCGCAAGTGAGG (guide RNA; chemistry not fully specified) [SluD51]"
  test_system: "CAG foci in primary DM1 patient myoblasts"
  assigned_label: "no (0)"
- substance: "CACTTTGCGAACCAACGATAGG (guide RNA; chemistry not fully specified) [SluD27]"
  test_system: "CAG foci in primary DM1 patient myoblasts"
  assigned_label: "yes (1)"

Decide: % of CAG foci positive nuclei (DNA-PKi) of cccctccctccccggccGCTAG (guide RNA; as printed in the source, key not given here) [SluU46] strictly below 2%? yes (1)

Decide: % of CAG foci positive nuclei (DNA-PKi) of CGGCTCCGCCCGCTTCGGCGGT (guide RNA; chemistry not fully specified) [SluD60] strictly below 2%? yes (1)

Decide: % of CAG foci positive nuclei (DNA-PKi) of ACGGCCCGGCTTGCTGCCTTCC (guide RNA; chemistry not fully specified) [SluD17] strictly below 2%? yes (1)

Decide: % of CAG foci positive nuclei (DNA-PKi) of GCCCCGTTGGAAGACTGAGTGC (listed as DNA, chemistry not fully specified) [SluU08] strictly below 2%? yes (1)

Decide: % of CAG foci positive nuclei (DNA-PKi) of TGTGAACTGGCAGGCGGTGGGC (guide RNA; chemistry not fully specified) [SluU17] strictly below 2%? yes (1)

Decide: % of CAG foci positive nuclei (DNA-PKi) of TTTGCACTTTGCGAACCAACGA (guide RNA; chemistry not fully specified) [SluD29] strictly below 2%? no (0)

Decide: % of CAG foci positive nuclei (DNA-PKi) of GGGGCGCGGGATCCCCGAAAAA (guide RNA; chemistry not fully specified) [SluD44] strictly below 2%? no (0)

Decide: % of CAG foci positive nuclei (DNA-PKi) of TGGAAGACTGAGTGCCCGGGGC (guide RNA; chemistry not fully specified) [SluU14] strictly below 2%? yes (1)

Every entry's value here was drawn from patent US20240173432A1.
